- tested-target: ATP-citrate synthase (Homo sapiens, UniProt P53396)
- Sequence (P53396 whole entry): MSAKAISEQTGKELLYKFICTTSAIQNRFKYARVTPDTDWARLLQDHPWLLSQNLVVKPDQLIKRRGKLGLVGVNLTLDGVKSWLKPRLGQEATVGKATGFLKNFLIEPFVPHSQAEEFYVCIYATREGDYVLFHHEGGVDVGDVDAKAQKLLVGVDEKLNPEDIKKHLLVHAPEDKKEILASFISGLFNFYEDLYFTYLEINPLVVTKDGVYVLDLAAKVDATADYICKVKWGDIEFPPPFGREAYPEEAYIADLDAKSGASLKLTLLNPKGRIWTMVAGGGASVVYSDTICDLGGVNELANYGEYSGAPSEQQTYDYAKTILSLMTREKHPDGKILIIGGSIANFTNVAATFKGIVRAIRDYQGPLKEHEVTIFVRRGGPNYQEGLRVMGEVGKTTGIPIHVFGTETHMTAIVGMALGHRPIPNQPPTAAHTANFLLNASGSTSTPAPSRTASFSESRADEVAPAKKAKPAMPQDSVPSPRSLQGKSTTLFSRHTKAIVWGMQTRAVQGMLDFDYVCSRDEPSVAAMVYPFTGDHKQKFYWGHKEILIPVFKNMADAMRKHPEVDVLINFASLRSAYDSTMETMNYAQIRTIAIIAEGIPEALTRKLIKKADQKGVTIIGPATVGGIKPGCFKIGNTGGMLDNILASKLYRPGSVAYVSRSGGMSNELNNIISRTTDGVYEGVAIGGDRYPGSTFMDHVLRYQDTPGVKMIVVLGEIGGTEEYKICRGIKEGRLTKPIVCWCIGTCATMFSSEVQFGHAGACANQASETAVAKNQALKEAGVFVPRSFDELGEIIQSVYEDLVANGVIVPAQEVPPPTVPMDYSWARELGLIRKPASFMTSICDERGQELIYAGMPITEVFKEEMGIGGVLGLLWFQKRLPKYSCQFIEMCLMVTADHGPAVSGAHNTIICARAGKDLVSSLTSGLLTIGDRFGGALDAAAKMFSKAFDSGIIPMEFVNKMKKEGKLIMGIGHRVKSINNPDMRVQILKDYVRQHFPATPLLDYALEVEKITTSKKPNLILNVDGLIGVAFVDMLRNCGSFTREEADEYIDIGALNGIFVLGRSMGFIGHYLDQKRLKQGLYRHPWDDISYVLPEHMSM
- test-summary: Inhibition of ACL (unknown origin)
metric: pIC50
Please keep in mind that pIC50 is minus log10 of the molar concentration; only the number is needed.

Value lookup for pIC50; key = COc1ccc(-c2ccccc2)cc1NS(=O)(=O)c1cc(Cl)cc(Cl)c1O 6.30
